Ref: paper PMC5063993

testedTarget: CgT (C-terminal dGT1) (Streptococcus parasanguinis, UniProt I1ZPA1)
Construct: C-terminal domain, residues 287-582 (286-582 in Results), pET-sumo, E. coli BL21(DE3); dimer by gel filtration
Sequence (I1ZPA1 entry or part of it): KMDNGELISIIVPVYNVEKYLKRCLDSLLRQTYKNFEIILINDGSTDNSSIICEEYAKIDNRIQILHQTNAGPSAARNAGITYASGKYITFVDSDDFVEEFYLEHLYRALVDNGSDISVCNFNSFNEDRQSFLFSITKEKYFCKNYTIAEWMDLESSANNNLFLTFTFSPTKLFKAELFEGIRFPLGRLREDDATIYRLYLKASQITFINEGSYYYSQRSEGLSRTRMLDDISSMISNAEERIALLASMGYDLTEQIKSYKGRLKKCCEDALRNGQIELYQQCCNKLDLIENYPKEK
testProtocol: isothermal titration calorimetry
readoutName: Kd (mM)
Give your result in mM as a bare value.

Measured Kd of CC(=O)N[C@H]1[C@@H](OP(=O)(O)OP(=O)(O)OC[C@H]2O[C@@H](n3ccc(=O)[nH]c3=O)[C@H](O)[C@@H]2O)O[C@H](CO)[C@@H](O)[C@@H]1O : 10.7
